Target: T1, human ICOS (human, UniProt Q9Y6W8 21-199)
T1 construct: whole, on cells
T1 sequence (looked up): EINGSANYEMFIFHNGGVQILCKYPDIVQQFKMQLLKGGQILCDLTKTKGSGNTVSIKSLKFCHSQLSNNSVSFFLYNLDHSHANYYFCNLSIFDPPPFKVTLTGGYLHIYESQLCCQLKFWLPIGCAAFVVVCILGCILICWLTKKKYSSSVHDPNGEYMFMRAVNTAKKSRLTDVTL
Test: flow cytometry, cells with human ICOS; protein from CHO
readout.kind: MFI
Numeric answer plus unit only.

Use the examples below as a reference point.
binder	result
ICOSL ECD Truncation #7 with N52H/N57Y/Q100R/C198R and E90K/E111G (Fc fusion, not shown: a dimerising Fc or GST, Made in CHO cells) DTQEKEVRAMVGSDVELSCACPEGSRFDLNDVYVYWQTSESKTVVTYHIPQHSSLEYVDSRYRNRALMSPAGMLRGDFSLRLFNVTPQDKQKFHCLVLSRSLGFQEVLSVGVTLHVAANFSVPVVSAPHSPSQDELTFTCTSINGYPRPNVYWINKTDNSLLDQALQNDTVFLNMRGLYDVVSVLRIARTPSVNIGCRIEN	54600 MFI
ICOSL ECD with N52H/N57Y/Q100R/C198R (Table 18) (Fc fusion, not shown: a dimerising Fc or GST, Made in CHO cells; May be the same construct as m37) DTQEKEVRAMVGSDVELSCACPEGSRFDLNDVYVYWQTSESKTVVTYHIPQHSSLEYVDSRYRNRALMSPAGMLRGDFSLRLFNVTPQDEQKFHCLVLSRSLGFQEVLSVEVTLHVAANFSVPVVSAPHSPSQDELTFTCTSINGYPRPNVYWINKTDNSLLDQALQNDTVFLNMRGLYDVVSVLRIARTPSVNIGCRIENVLLQQNLTVGSQTGNDIGERDKITENPVSTGEKNAAT	139000 MFI
ICOSL ECD Truncation #6 with N52H/N57Y/Q100R/C198R (Fc fusion, not shown: a dimerising Fc or GST, Made in CHO cells) DTQEKEVRAMVGSDVELSCACPEGSRFDLNDVYVYWQTSESKTVVTYHIPQHSSLEYVDSRYRNRALMSPAGMLRGDFSLRLFNVTPQDEQKFHCLVLSRSLGFQEVLSVEVTLHVAANFSVPVVSAPHSPSQDELTFTCTSINGYPRPNVYWINKTDNSLLDQALQNDTVFLNMRGLYDVVSVLRIARTPSVNIGCRIENVLL	91400 MFI

get_value(item= ICOSL ECD Truncation #5 with N52H/N57Y/Q100R/C198R (Fc fusion, not shown: a dimerising Fc or GST, Made in CHO cells) DTQEKEVRAMVGSDVELSCACPEGSRFDLNDVYVYWQTSESKTVVTYHIPQHSSLEYVDSRYRNRALMSPAGMLRGDFSLRLFNVTPQDEQKFHCLVLSRSLGFQEVLSVEVTLHVAANFSVPVVSAPHSPSQDELTFTCTSINGYPRPNVYWINKTDNSLLDQALQNDTVFLNMRGLYDVVSVLRIARTPSVNIGCRIENVLLQQ , readout=MFI) returns 110000 MFI

Value source: patent US20220218785A1
